Source listed as the supplement of paper PMC8975748.

System: Saccharomyces cerevisiae BY4741 SeMeCo community
Test: z-score of subpopulation abundance vs DMSO median, subpopulation auxotrophic for U; higher = larger share of this subpopulation than in DMSO controls
Settings: 10 µM; 24 h; SM minimal medium; subpopulation (auxotrophy): U
Where a name gives a salt, the structure may show the parent alone.
reported.endpoint: z-score of subpopulation abundance
Answers are plain numbers.

Solved entries:
INSERT INTO assay_data (molecule, target_desc, reported_endpoint, endpoint_value) VALUES
  ('O=C(CCCN1CC=C(n2c(=O)[nH]c3ccccc32)CC1)c1ccc(F)cc1 [Droperidol]', 'Saccharomyces cerevisiae BY4741 SeMeCo community', 'z-score of subpopulation abundance', 0.1),
  ('O=c1ccn(C2CC(O)C(CO)O2)c(=O)[nH]1 (stereo unspecified) [2-deoxyuridine]', 'Saccharomyces cerevisiae BY4741 SeMeCo community', 'z-score of subpopulation abundance', -1.16),
  ('C[C@H](NCc1ccc(OCc2cccc(F)c2)cc1)C(N)=O [Safinamide]', 'Saccharomyces cerevisiae BY4741 SeMeCo community', 'z-score of subpopulation abundance', 1.46);

Go through the items and report each one's z-score of subpopulation abundance.
1. OCCN1CCN(CC/C=C2/c3ccccc3Sc3ccc(C(F)(F)F)cc32)CC1 [Flupenthixol dihydrochloride]
2. Cc1c(C)c2c(c(C)c1O)CCC(C)(CCCC(C)CCCC(C)CCCC(C)C)O2 (stereo unspecified) [Vitamin E]
3. C[C@H]1c2cccc(O)c2C(O)=C2C(=O)[C@]3(O)C(O)=C(C(N)=O)C(=O)[C@@H](N(C)C)[C@@H]3[C@@H](O)[C@@H]21 [Doxycycline]

1: -0.72; 2: 0.13; 3: -0.63
